Biological target: T1, fully glycosylated, monobiotinylated extracellular domain of human CD98hc produced in HEK 293E cells (human, UniProt P08195 111-529, N-linked glycosylation at Asn264, 280, 323 and 405 (UniProt P08195-2); single biotin on the N-terminal BAP)
T1 construct: also called hCD98hcEDg; CD98hcEDg; not shown: N-terminal His6 tag and biotin acceptor peptide (BAP) from pDSG-BM-His6-BAP-hCD98hcEDg
T1 sequence: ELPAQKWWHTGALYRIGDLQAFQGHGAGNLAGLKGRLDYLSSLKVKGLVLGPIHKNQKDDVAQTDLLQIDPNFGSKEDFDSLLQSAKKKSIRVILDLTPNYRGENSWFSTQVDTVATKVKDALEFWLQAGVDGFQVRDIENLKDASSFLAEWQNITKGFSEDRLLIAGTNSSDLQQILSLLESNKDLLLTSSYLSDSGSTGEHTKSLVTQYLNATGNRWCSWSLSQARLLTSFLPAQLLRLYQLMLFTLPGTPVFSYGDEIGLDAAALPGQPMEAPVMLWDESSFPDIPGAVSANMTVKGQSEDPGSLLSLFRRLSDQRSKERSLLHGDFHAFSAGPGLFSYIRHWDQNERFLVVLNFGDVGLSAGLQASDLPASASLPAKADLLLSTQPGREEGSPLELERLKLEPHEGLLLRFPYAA
Assay: SPR, biotinylated hCD98hcEDg captured on CAP chip
Measured kon of individual entries
Could you give me the number in M⁻¹ s⁻¹? Just the number is fine.

Example entries and their recorded answers appear below.
lipocalin variant D11vs (designed binder, P3D11 variant with Phe71Ser and Gly81Val; also called Anticalin D11vs; not shown: C-terminal His6-tag (plasmid pNGAL118) as for the other soluble lipocalin variants) QDSTSDLIPAPPLSKVPLQQNFQDNQFHGKWYVVGRAGNTGLREDKDPGKMFATIYELKEDKSYNVTYVWSGQKKCMYSIVTFVPGSQPGEFTLGNIKSAPGRTSWLVRVVSTNYNQHAMVFFKSVTQNREGFAITLYGRTKELTSELKENFIRFSKSLGLPENHIVFPVPIDQCIDG: 460000
lipocalin variant P1E4 (designed binder, produced soluble in E. coli JM83, monomeric; also called Anticalin P1E4; not shown: C-terminal His6-tag (plasmid pNGAL118)) QDSTSDLIPAPPLSKVPLQQNFQDNQFHGKWYVVGIAGNSMLREDKDPFKMTATIYELKEDKSYNVTRVRFDDKKCLYRILTFVPGSQPGEFTLGNIKSRPGWTSWLVRVVSTNYNQHAMVFFKRVHQNRETFWITLYGRTKELTSELKENFIRFSKSLGLPENHIVFPVPIDQCIDG: 560000
lipocalin variant P3D11 (designed binder, produced soluble in E. coli JM83, monomeric; also called Anticalin P3D11; not shown: C-terminal His6-tag (plasmid pNGAL118)) QDSTSDLIPAPPLSKVPLQQNFQDNQFHGKWYVVGRAGNTGLREDKDPGKMFATIYELKEDKSYNVTYVWFGQKKCMYSIGTFVPGSQPGEFTLGNIKSAPGRTSWLVRVVSTNYNQHAMVFFKSVTQNREGFAITLYGRTKELTSELKENFIRFSKSLGLPENHIVFPVPIDQCIDG: 300000

In: kon lookup needed for lipocalin variant P3A12 (designed binder, produced soluble in E. coli JM83, monomeric; also called Anticalin P3A12; not shown: C-terminal His6-tag (plasmid pNGAL118)) QDSTSDLIPAPPLSKVPLQQNFQDNQFHGKWYVVGRAGNLGLREDKDPAKMFATIYELKEDKSYNVTYVWFDLKKCKYSIHTFVPGSQPGEFTLGKIKSGPGHTSWLVRVVSTNYNQHAMVFFKWVGQNRENFAITLYGRTKELTSELKENFIRFSKSLGLPENHIVFPVPIDQCIDG , thanks.
Out: 220000
